The reported measurements were obtained from patent US20080051420A1.

target: human β-secretase (Homo sapiens, UniProt P56817); construct: The soluble part of the human β-secretase (AA 1-AA 460) was cloned; made in house; assay: TR-FRET assay (β-secretase enzyme, sBACE-Fc); assay type: biochemical; conditions: read-out: IC50 in TR-FRET assay
Sequence (P56817 22-460): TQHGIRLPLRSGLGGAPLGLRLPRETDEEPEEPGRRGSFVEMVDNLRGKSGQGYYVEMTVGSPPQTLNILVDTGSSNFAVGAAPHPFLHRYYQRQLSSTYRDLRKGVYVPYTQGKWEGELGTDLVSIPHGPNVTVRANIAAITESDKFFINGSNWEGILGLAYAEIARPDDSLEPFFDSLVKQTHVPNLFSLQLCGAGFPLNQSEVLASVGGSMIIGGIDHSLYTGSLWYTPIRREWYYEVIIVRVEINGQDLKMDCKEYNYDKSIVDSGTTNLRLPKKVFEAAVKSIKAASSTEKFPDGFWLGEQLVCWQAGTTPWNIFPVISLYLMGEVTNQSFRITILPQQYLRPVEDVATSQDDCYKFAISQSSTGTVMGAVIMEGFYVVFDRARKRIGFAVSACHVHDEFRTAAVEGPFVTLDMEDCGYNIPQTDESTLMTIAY
pIC50: −log10 of the molar value.
quantity: pIC50

* CCCS(=O)(=O)Oc1ccc(C2(c3cccc(-c4cc(Cl)ccc4Cl)c3)N=C(N)N3CCCN=C32)cc1 (stereo not shown) [Example 63] | 6.04

(a) CCCS(=O)(=O)Oc1ccc(C2(c3cccc(-c4cccc(OC)c4)c3)N=C(N)N3CCCN=C32)cc1 (stereo not shown) [Example 55]
(b) NC1=NC(c2ccc(OS(=O)(=O)C3CC3)cc2)(c2cccc(-c3cc(Cl)ccc3Cl)c2)C2=NCCCN12 (stereo not shown) [Example 72]
(c) COc1cccc(-c2cccc(C3(c4ccc(OS(=O)(=O)C5CC5)cc4)N=C(N)N4CCCN=C43)c2)c1 (stereo not shown) [Example 65]
Arrange these 3 compounds in increasing order of pIC50. Form field (ranking): labels in requested order.
b, c, a
(b: 6.19, c: 6.61, a: 6.86)

---

target: human β-secretase (Homo sapiens); construct: The soluble part of the human β-secretase (AA 1-AA 460) was cloned; made in house; assay: TR-FRET assay (β-secretase enzyme, sBACE-Fc); format: biochemical
quantity: IC50 (µM)
Note: unit µM is implicit; provide only the numeric part.

Fill in the blank: the reported IC50 of COc1ccc(C2(c3cccc(-c4cc(OC)cc(OS(C)(=O)=O)c4)c3)N=C(N)N3CCN=C32)cc1 (stereo not shown) [Example 73, methanesulfonate acetate] is ____.
0.19

---

molecular target: human β-secretase (Homo sapiens, UniProt P56817); construct: The soluble part of the human β-secretase (AA 1-AA 460) was cloned; made in house; experiment: TR-FRET assay (β-secretase enzyme, sBACE-Fc); format: biochemical; settings: read-out: IC50 in TR-FRET assay
pIC50: −log10 of the molar value.
quantity: pIC50

• CS(=O)(=O)Oc1cccc(C2(c3cccc(-c4cccc(Cl)c4)c3)N=C(N)N3CCCN=C32)c1 (stereo not shown) [Example 117] = 6.60
• CS(=O)(=O)Oc1ccc(C2(c3cccc(-c4cccc(OC(F)(F)F)c4)c3)N=C(N)N3CCCN=C32)cc1 (stereo not shown) [Example 41] = 6.01
• CC(C)S(=O)(=O)Oc1ccc(C2(c3cccc(-c4cccnc4)c3)N=C(N)N3CCN=C32)cc1 (stereo not shown) [Example 83] = 5.60
• NC1=NC(c2ccc(OS(=O)(=O)C3CC3)cc2)(c2cccc(-c3cc(Cl)cc(Cl)c3)c2)C2=NCCCN12 (stereo not shown) [Example 66] = 7.18
• CCCS(=O)(=O)Oc1ccc(C2(c3cccc(-c4ccc(F)c(OC)c4)c3)N=C(N)N3CCCN=C32)cc1 (stereo not shown) [Example 61] = 6.17

(a) CCCS(=O)(=O)Oc1ccc(C2(c3cccc(-c4cccc(Cl)c4F)c3)N=C(N)N3CCCN=C32)cc1 (stereo not shown) [Example 62]
(b) CS(=O)(=O)Oc1ccc(C2(c3cccc(-c4cccnc4)c3)N=C(N)N3CCN=C32)cc1 (stereo not shown) [Example 77]
Could you determine which record has the numerically smaller pIC50? Candidates: a and b Refer to your chosen entry by its label in the reply.
b
(b: 5.82, a: 6.60)

---

target: human β-secretase (Homo sapiens, UniProt P56817); construct: The soluble part of the human β-secretase (AA 1-AA 460) was cloned; made in house; assay: TR-FRET assay (β-secretase enzyme, sBACE-Fc); format: biochemical; conditions: read-out: IC50 in TR-FRET assay
quantity: IC50 (nM)

• CS(=O)(=O)Oc1ccc(C2(c3cccc(-c4cnccn4)c3)N=C(N)N3CCCN=C32)cc1 (centres unmarked) [Example 32, methanesulfonate acetate] = 501
• COc1ccc(C2(c3cccc(-c4cc(OC)cc(OS(C)(=O)=O)c4)c3)N=C(N)N3CCCN=C32)cc1 (centres unmarked) [Example 52, methanesulfonate acetate] = 43

(P) CCCS(=O)(=O)Oc1cccc(C2(c3cccc(-c4cccc(OC)c4)c3)N=C(N)N3CCCN=C32)c1 (centres unmarked)
(Q) COc1cccc(-c2cccc(C3(c4ccc(OS(=O)(=O)C(C)C)cc4)N=C(N)N4CCN=C43)c2)c1 (centres unmarked)
Endpoint returns whichever of P and Q has the numerically higher IC50. Refer to your chosen entry by its label in the reply.
Q

(A) CCOc1cccc(-c2cccc(C3(c4ccc(OS(C)(=O)=O)cc4)N=C(N)N4CCCN=C43)c2)c1 (centres unmarked)
(B) NC1=NC(c2ccccc2)(c2cccc(Br)c2)C2=NCCCN12 (centres unmarked)
Endpoint returns whichever of A and B has the numerically higher IC50. Refer to your chosen entry by its label in the reply.
B
(B: 727 nM, A: 471 nM)

---

target: human β-secretase (Homo sapiens, UniProt P56817); construct: The soluble part of the human β-secretase (AA 1-AA 460) was cloned; made in house; assay: TR-FRET assay (β-secretase enzyme, sBACE-Fc); assay type: biochemical; settings: read-out: IC50 in TR-FRET assay
pIC50: −log10 of the molar value.
quantity: pIC50

Field: example entries. Status: answers known.
- CS(=O)(=O)Oc1ccc(C2(c3cccc(-c4cc(Cl)cnc4F)c3)N=C(N)N3CCN=C32)cc1 (stereo not drawn) [Example 79]: 6.36
- CS(=O)(=O)Oc1ccc(C2(c3cccc(-c4cccc(Cl)c4)c3)N=C(N)N3CCN=C32)cc1 (stereo not drawn) [Example 76]: 6.65
- NC1=NC(c2cccc(OS(=O)(=O)C(F)(F)F)c2)(c2cccc(-c3cccnc3)c2)C2=NCCCN12 (stereo not drawn) [Example 130]: 6.86
- CS(=O)(=O)Oc1cccc(C2(c3cccc(-c4cncnc4)c3)N=C(N)N3CCCN=C32)c1 (stereo not drawn) [Example 120]: 6.57
- COc1cccc(-c2cccc(C3(c4cccc(OS(=O)(=O)C5CC5)c4)N=C(N)N4CCCN=C43)c2)c1 (stereo not drawn) [Example 127]: 6.75

(A) CCCS(=O)(=O)Oc1ccc(C2(c3cccc(-c4cccnc4F)c3)N=C(N)N3CCCN=C32)cc1 (stereo not drawn) [Example 59, acetate]
(B) NC1=NC(c2ccc(OS(=O)(=O)C3CC3)cc2)(c2cccc(-c3cccc(Cl)c3F)c2)C2=NCCCN12 (stereo not drawn) [Example 71]
Could you determine which record has the numerically smaller pIC50? Candidates: A and B Refer to your chosen entry by its label in the reply.
B
(B: 6.41, A: 6.66)

---

Target: human β-secretase (Homo sapiens, UniProt P56817)
Construct: The soluble part of the human β-secretase (AA 1-AA 460) was cloned; made in house
Test: TR-FRET assay (β-secretase enzyme, sBACE-Fc)
Format: biochemical
Settings: read-out: IC50 in TR-FRET assay
Description: The enzyme used in the IGEN Cleavage-, Fluorescent-, TR-FRET- and BiaCore assays is described as follows: The soluble part of the human β-secretase (AA 1-AA 460) was cloned into the ASP2-F10-1-IRES-GFP-neoK mammalian expression vector. The gene was fused to the Fc domain of IgG1 (affinity tag) and stably cloned into HEK 293 cells. Purified sBACE-Fc is stored in Tris buffer, pH 9.2 and has a purity of 95%. […]
quantity: IC50 (µM)

(1) Cc1cc(C)cc(-c2cccc(C3(c4cccc(OS(C)(=O)=O)c4)N=C(N)N4CCCN=C43)c2)c1 (centres unmarked)
(2) NC1=NC(c2cccc(OS(=O)(=O)C(F)(F)F)c2)(c2cccc(-c3cc(Cl)cc(Cl)c3)c2)C2=NCCCN12 (centres unmarked)
Endpoint returns whichever of 1 and 2 has the numerically higher IC50. Refer to your chosen entry by its label in the reply.
2
(2: 0.214 µM, 1: 0.069 µM)

(I) NC1=NC(c2ccc(OS(=O)(=O)C3CC3)cc2)(c2cccc(-c3cccc(Cl)c3)c2)C2=NCCCN12 (centres unmarked)
(II) NC1=NC(c2ccc(OS(=O)(=O)C(F)(F)F)cc2)(c2cccc(-c3cccc(Cl)c3)c2)C2=NCCN12 (centres unmarked)
(III) CS(=O)(=O)Oc1cccc(C2(c3cccc(-c4cc(Cl)cnc4F)c3)N=C(N)N3CCCN=C32)c1 (centres unmarked)
# desc sort on IC50 across 3 compounds Form field (ranking): labels in requested order.
III, II, I

---

target: human β-secretase (Homo sapiens); construct: The soluble part of the human β-secretase (AA 1-AA 460) was cloned; made in house; assay: TR-FRET assay (β-secretase enzyme, sBACE-Fc); format: biochemical; settings: read-out: IC50 in TR-FRET assay
pIC50: −log10 of the molar value.
quantity: pIC50

Field: example entries. Status: answers known.
* NC1=NC(c2cccc(Br)c2)(c2cccc(OS(=O)(=O)C(F)(F)F)c2)C2=NCCCN12 (stereo not shown) [Example 113] | 5.92
* CCCS(=O)(=O)Oc1ccc(C2(c3cccc(-c4cccc(C(F)(F)F)c4)c3)N=C(N)N3CCCN=C32)cc1 (stereo not shown) [Example 60] | 6.31
* NC1=NC(c2ccc(OS(=O)(=O)C3CC3)cc2)(c2cccc(-c3cccnc3F)c2)C2=NCCCN12 (stereo not shown) [Example 69] | 6.50
* NC1=NC(c2cccc(OS(=O)(=O)C(F)(F)F)c2)(c2cccc(-c3cncnc3)c2)C2=NCCCN12 (stereo not shown) [Example 132] | 6.43

(I) NC1=NC(c2cccc(OS(=O)(=O)C(F)(F)F)c2)(c2cccc(-c3cccc(Cl)c3)c2)C2=NCCCN12 (stereo not shown) [Example 115]
(II) CC(C)S(=O)(=O)Oc1ccc(C2(c3cccc(-c4cccc(Cl)c4)c3)N=C(N)N3CCN=C32)cc1 (stereo not shown) [Example 82]
(III) CS(=O)(=O)Oc1ccc(C2(c3cccc(-c4cccnc4F)c3)N=C(N)N3CCN=C32)cc1 (stereo not shown) [Example 78]
Arrange these 3 compounds in increasing order of pIC50. Form field (ranking): labels in requested order.
III, II, I
(III: 6.07, II: 6.32, I: 6.97)
